- Study system: ETA Receptor (Rattus norvegicus, UniProt P26684)
- Construct: endogenous in cells; host or cells: MMQ rat pituitary cells (membranes)
- Test name: [125I]ET-1 binding to membranes from MMQ cells (ETA receptor binding assay, Table 4)
- Run parameters: test compound at 1 μM; 0.1 nM [125I]ET-1, MMQ cell membranes, 4 hours at 25° C.
Value kind: % Inhibition of ETA at 1 μM (%)

// solved cases for % Inhibition of ETA at 1 μM follow
# Compound, Study system, Value kind, Val
rows = [
    ("CCCCCN(CCCCC)C(=O)CN1CC(c2ccc3c(c2)OCO3)C(C(=O)O)C1c1ccc(OC)cc1 (centres unmarked) [Example 35]", "ETA Receptor (Rattus norvegicus, UniProt P26684)", "% Inhibition of ETA at 1 μM", 91.8),
    ("CCOCCN1CC(c2ccc3c(c2)OCO3)C(C(=O)O)C1c1ccc(OC)cc1 (centres unmarked) [Example 4]", "ETA Receptor (Rattus norvegicus, UniProt P26684)", "% Inhibition of ETA at 1 μM", 78.2),
    ("CCCCN(CCCC)C(=O)CN1CC(c2ccc3c(c2)OCO3)C(C(=O)O)C1c1cccnc1 (centres unmarked) [Example 130]", "ETA Receptor (Rattus norvegicus, UniProt P26684)", "% Inhibition of ETA at 1 μM", 91.0),
    ("COCCN(CCOC)C(=O)CN1CC(c2ccc3c(c2)OCO3)C(C(=O)O)C1c1ccc(OC)cc1 (centres unmarked) [Example 36]", "ETA Receptor (Rattus norvegicus, UniProt P26684)", "% Inhibition of ETA at 1 μM", 94.5),
]

(1) CCCN(CCN1CC(c2ccc3c(c2)OCO3)C(C(=O)O)C1c1ccc(OC)cc1)S(=O)(=O)CCOCC (centres unmarked) [Example 126]
(2) COCCOc1ccc(C2C(C(=O)O)C(c3ccc4c(c3)OCO4)CN2CC(=O)NN(c2ccccc2)C(C)(C)C)cc1 (centres unmarked) [Example 561]
(3) CCCCN(CCCC)C(=O)CN1CC(c2ccc3c(c2)CCO3)C(C(=O)O)C1c1ccc(C(C)(C)C)cc1 (centres unmarked) [Example 159]
Order the records so the highest % Inhibition of ETA at 1 μM appears first and the lowest last. Use the labels to give the ranking in the order requested.
1, 3, 2

###

- Study system: human ETB receptor (Homo sapiens, UniProt P24530)
- Construct: expressed in transfected cells; host or cells: CHO cells, permanently transfected
- Sequence (P24530 27-442): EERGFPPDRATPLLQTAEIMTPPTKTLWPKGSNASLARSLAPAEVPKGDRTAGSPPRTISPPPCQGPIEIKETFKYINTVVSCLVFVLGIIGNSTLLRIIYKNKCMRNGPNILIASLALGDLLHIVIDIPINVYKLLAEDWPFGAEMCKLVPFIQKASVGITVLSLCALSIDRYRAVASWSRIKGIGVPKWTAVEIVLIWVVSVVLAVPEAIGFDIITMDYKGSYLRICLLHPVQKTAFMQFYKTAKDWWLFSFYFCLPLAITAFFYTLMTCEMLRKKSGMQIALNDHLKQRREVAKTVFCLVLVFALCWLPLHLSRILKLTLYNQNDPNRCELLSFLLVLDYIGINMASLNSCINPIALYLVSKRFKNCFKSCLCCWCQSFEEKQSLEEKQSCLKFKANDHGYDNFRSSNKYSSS
- Test name: ETA/ETB selectivity: (125I)ET-3 competition binding, CHO cells transfected with human ETB receptor (hET-B)
- Run parameters: CHO cells transfected with human ETB receptor; 0.1 nM (125I)ET-3; read-out: hET-B IC50
Value kind: IC50

# Molecule, IC50
records = [
    ("CCCCN(CCCC)C(=O)CN1CC(c2ccc3c(c2)OCO3)C(C(=O)O)C1CCC1OCCO1 (centres unmarked) [compound 504]", "> 100 µM"),
    ("CCCCN(CCCC)C(=O)CN1CC(c2ccc3c(c2)OCO3)C(C(=O)O)C1CC(C)(C)C1OCCO1 (centres unmarked) [compound 507]", "> 100 µM"),
    ("CCCCN(CCCC)C(=O)CN1CC(c2ccc3c(c2)OCO3)C(C(=O)O)C1CCN1CCCC1=O (centres unmarked) [compound 512]", "≥ 60 µM"),
    ("CCCCN(CCCC)C(=O)CN1CC(c2ccc3c(c2)OCO3)C(C(=O)O)C1CC(C)(C)CCC (centres unmarked) [compound 503]", "52 µM"),
    ("CCCCN(CCCC)C(=O)CN1C[C@H](c2ccc3c(c2)CCO3)[C@@H](C(=O)O)[C@@H]1CC(C)(C)CCC [compound 515]", "> 100 µM"),
    ("CCCCN(CCCC)C(=O)CN1CC(c2ccc3c(c2)OCO3)C(C(=O)O)C1CCC1CCCCO1 (centres unmarked) [compound 505]", "68 µM"),
    ("CCCCN(CCCC)C(=O)CN1CC(c2ccc3c(c2)OCO3)C(C(=O)O)C1COc1ccccc1OC (centres unmarked) [compound 510]", "11 µM"),
]

Fill blank: measured IC50 of the molecule CC=CC(C)(C)CC1C(C(=O)O)C(c2ccc3c(c2)OCO3)CN1CC(=O)N(CCCC)CCCC (centres unmarked) [compound 552] is ____.
> 96 µM

###

- Study system: ETB receptors of porcine cerebellar tissues (pET-B) (Sus scrofa, UniProt P35463)
- Construct: porcine cerebellar tissues (known to contain ETB receptors); from tissue; host or cells: porcine cerebellum (membranes)
- Sequence (P35463 27-443): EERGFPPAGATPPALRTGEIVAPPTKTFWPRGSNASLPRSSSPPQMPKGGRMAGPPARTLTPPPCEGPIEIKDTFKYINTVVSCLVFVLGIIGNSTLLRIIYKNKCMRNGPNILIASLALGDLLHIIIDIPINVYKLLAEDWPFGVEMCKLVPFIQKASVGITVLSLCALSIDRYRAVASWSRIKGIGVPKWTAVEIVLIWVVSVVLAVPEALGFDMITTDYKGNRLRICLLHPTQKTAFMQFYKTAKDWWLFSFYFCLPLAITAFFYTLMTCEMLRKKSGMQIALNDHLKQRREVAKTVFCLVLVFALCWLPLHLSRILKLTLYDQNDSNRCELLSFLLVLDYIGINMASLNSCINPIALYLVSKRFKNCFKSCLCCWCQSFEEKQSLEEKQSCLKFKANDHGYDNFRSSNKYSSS
- Test name: ETA/ETB selectivity: (125I)ET-3 competition binding, ETB assay in porcine cerebellum membranes (pET-B)
- Run parameters: porcine cerebellum membranes; 0.1 nM (125I)ET-3; read-out: pET-B IC50
pIC50: −log10 of the molar value.
Value kind: pIC50

// solved cases for pIC50 follow
# Compound, pIC50
rows = [
    ("CCCCN(CCC[N+](C)(C)C)C(=O)CN1CC(c2ccc3c(c2)OCO3)C(C(=O)O)C1c1ccc(OC)cc1 (stereo not shown)", 4.37),
    ("CCCCN(CCCC)C(=O)CN1CC(c2ccc3c(c2)OCO3)C(C(=O)O)C1CCc1ccccc1OC (stereo not shown)", 4.52),
    ("CC=CC(C)(C)CC1C(C(=O)O)C(c2cc(OC)c3c(c2)OCO3)CN1CC(=O)N(CCCC)CCCC (stereo not shown)", 4.37),
    ("CCCCN(CCCC)C(=O)CN1CC(c2ccc3c(c2)OCO3)C(C(=O)O)C1CC(C)(C)CCC (stereo not shown)", 4.30),
]

(I) CCCCN(CCCC)C(=O)CN1CC(c2cc(OC)c3c(c2)OCO3)C(C(=O)O)C1CC(C)(C)C1OCCO1 (stereo not shown)
(II) CCCCN(CCCCN)C(=O)CN1CC(c2ccc3c(c2)OCO3)C(C(=O)O)C1c1ccc(OC)cc1 (stereo not shown)
Between the entries labeled I and II , whose measured pIC50 is lower? When you have decided, please share the label of that item.
I
(I: 4.54, II: 5.20)

(I) CCCON(CCC)C(=O)CN1CC(c2ccc3c(c2)OCO3)C(C(=O)O)C1c1ccc(OC)cc1 (stereo not shown)
(II) CCCCN(CCCC)C(=O)CN1CC(c2cc(OC)c3c(c2)OCO3)C(C(=O)O)C1CCC1OCCO1 (stereo not shown)
Just curious, which one has the larger pIC50 reading, I or II ? When you have decided, please share the label of that item.
I

###

- Study system: ETA Receptor (Rattus norvegicus)
- Construct: endogenous in cells; host or cells: MMQ rat pituitary cells (membranes)
- Sequence (P26684 21-426): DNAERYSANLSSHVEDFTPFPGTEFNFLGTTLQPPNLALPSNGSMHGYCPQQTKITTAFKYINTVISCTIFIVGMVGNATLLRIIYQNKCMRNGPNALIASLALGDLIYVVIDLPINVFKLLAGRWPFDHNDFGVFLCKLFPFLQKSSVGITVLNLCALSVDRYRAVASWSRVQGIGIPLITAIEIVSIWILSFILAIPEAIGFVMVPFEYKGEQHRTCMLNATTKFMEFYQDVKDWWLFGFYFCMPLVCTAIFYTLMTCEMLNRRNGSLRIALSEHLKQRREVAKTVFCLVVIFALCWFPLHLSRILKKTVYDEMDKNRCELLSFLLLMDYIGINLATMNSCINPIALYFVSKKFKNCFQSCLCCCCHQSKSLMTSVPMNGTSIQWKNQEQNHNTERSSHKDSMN
- Test name: [125I]ET-1 binding to membranes from MMQ cells (ETA receptor binding assay, Table 4)
- Run parameters: test compound at 1 μM; 0.1 nM [125I]ET-1, MMQ cell membranes, 4 hours at 25° C.
Value kind: % Inhibition of ETA at 1 μM (%)

# Compound, % Inhibition of ETA at 1 μM [%]
data = [
    ("CCCCN(CCCC)C(=O)CN1CC(c2ccc3c(c2)CCO3)C(C(=O)O)C1c1ccoc1 (stereo not shown) [Example 163]", 90.6),
    ("CCCN(CCN1CC(c2ccc3c(c2)OCO3)C(C(=O)O)C1c1ccc(OC)cc1)S(=O)(=O)Cc1ccccc1 (stereo not shown) [Example 133]", 88.6),
    ("CCCN(CCN1CC(c2ccc3c(c2)OCO3)C(C(=O)O)C1c1ccc(OC)cc1)C(=O)OCC(C)C (stereo not shown) [Example 295]", 93.0),
    ("CCCCN(CCCC)C(=O)C(C)N1CC(c2ccc3c(c2)OCO3)C(C(=O)O)C1c1ccc(OC)cc1 (racemic) [Example 91C]", 91.6),
    ("CCCN(C)C(=O)CN1CC(c2cccc3occc23)C(C(=O)O)C1c1ccc(OC)cc1 (stereo not shown) [Example 135B]", 77.7),
]

(1) CCCN(C)C(=O)CN1CC(c2ccccc2)C(C(=O)O)C1c1ccc(OC)cc1 (stereo not shown) [Example 145]
(2) CCCN(C)C(=O)CN1CC(c2ccc3c(c2)OCCO3)C(C(=O)O)C1c1ccc(OC)cc1 (stereo not shown) [Example 29]
Between the entries labeled 1 and 2 , whose measured % Inhibition of ETA at 1 μM is lower? When you have decided, please share the label of that item.
1
(1: 32.4%, 2: 85.3%)

Origin of measurements: patent US7208517B1
